Reported values of pEC50 for individual entries
Target: PPAR-delta (Homo sapiens, UniProt Q03181)
Construct: expressed in transfected cells; host or cells: CV-1 cells
Sequence (Q03181 211-439 limits assumed): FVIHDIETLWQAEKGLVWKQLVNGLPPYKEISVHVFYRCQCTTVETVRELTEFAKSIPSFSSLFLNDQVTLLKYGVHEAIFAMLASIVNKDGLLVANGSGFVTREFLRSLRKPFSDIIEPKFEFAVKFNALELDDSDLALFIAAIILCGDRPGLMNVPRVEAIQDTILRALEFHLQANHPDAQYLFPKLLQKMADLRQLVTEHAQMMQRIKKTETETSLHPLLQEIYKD
Assay: human PPAR-GAL4 chimera luciferase reporter assay in CV-1 cells, PPAR-delta
Type: cell-based
Settings: Table 3, Examples 11-25, read-out: PPAR delta (EC50)
pEC50: −log10 of the molar value.

Check out these entries, answers already filled in.
INSERT INTO assay_data (compound, tgt, measured_parameter, value_reported) VALUES
  ('Cc1nc(-c2ccc(C(F)(F)F)cc2)sc1Cn1ccc2ccc(OC(C)(C)C(=O)O)cc21 [Example 16]', 'PPAR-delta (Homo sapiens, UniProt Q03181)', 'pEC50', '> 5.30'),
  ('Cc1nc(-c2ccc(C(F)(F)F)cc2)sc1CCN1CCc2cc(OC(C)(C)C(=O)O)ccc21 [Example 19]', 'PPAR-delta (Homo sapiens, UniProt Q03181)', 'pEC50', '> 5.30'),
  ('Cc1nc(-c2ccc(C(F)(F)F)cc2)sc1CCn1ccc2ccc(OCC(=O)O)cc21 [Example 22]', 'PPAR-delta (Homo sapiens, UniProt Q03181)', 'pEC50', '4.00 to 5.30'),
  ('Cc1nc(-c2ccc(C(F)(F)F)cc2)sc1CCN1CCc2ccc(OCC(=O)O)cc21 [Example 25]', 'PPAR-delta (Homo sapiens, UniProt Q03181)', 'pEC50', '> 5.30'),
  ('Cc1nc(-c2ccc(C(F)(F)F)cc2)sc1CCN1CCc2ccc(OC(C)(C)C(=O)O)cc21 [Example 20]', 'PPAR-delta (Homo sapiens, UniProt Q03181)', 'pEC50', '4.00 to 5.30');

Input line: Please look up its pEC50: Cc1nc(-c2ccc(C(F)(F)F)cc2)sc1CCN1CCc2cc(OCC(=O)O)ccc21 [Example 17]
Output line: 4.00 to 5.30

Input line: Tell me the measured pEC50 of Cc1nc(-c2ccc(C(F)(F)F)cc2)sc1CCn1ccc2cc(OC(C)(C)C(=O)O)ccc21 [Example 21] , please.
Output line: 4.00 to 5.30

Input line: Consider the compound shown here: Cc1nc(-c2ccc(C(F)(F)F)cc2)sc1Cn1cc(CC(=O)O)c2ccccc21 [Example 24] What is its recorded pEC50?
Output line: > 5.30

* * *

Some molecules, each annotated with its measured EC50.
target: PPAR-alpha (Homo sapiens); construct: expressed in transfected cells; host or cells: CV-1 cells; test: human PPAR-GAL4 chimera luciferase reporter assay in CV-1 cells, PPAR-alpha; format: cell-based; settings: Table 2, Examples 1-10, read-out: PPAR α EC50
Sequence (Q07869 239-466 limits assumed): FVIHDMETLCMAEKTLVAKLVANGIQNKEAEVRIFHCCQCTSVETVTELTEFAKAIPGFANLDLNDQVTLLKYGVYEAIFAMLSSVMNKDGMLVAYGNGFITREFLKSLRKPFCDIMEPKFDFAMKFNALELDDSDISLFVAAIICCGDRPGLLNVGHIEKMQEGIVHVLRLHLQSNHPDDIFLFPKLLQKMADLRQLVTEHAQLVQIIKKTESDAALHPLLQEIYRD

INSERT INTO measurements (molecule, measured_parameter, value_reported) VALUES
  ('Cc1nc(-c2ccc(C(F)(F)F)cc2)sc1Cn1ccc2cc(C(=O)O)ccc21 [Example 10]', 'EC50', '> 10 µM'),
  ('Cc1nc(-c2ccc(C(F)(F)F)cc2)sc1CSc1cccc(CC(=O)O)c1 [Example 2]', 'EC50', '< 1 µM'),
  ('Cc1nc(-c2ccc(C(F)(F)F)cc2)sc1COc1ccc2ccn(CC(=O)O)c2c1 [Example 5]', 'EC50', '> 10 µM'),
  ('Cc1nc(-c2ccc(C(F)(F)F)cc2)sc1COc1cccc2ccn(CC(=O)O)c12 [Example 6]', 'EC50', '> 10 µM'),
  ('Cc1nc(-c2ccc(C(F)(F)F)cc2)sc1Cn1cc(C(=O)O)c2ccccc21 [Example 8]', 'EC50', '> 10 µM');

Input line: Returns the measured EC50 for the input molecule. Input: Cc1nc(-c2ccc(C(F)(F)F)cc2)sc1COc1ccc2c(ccn2CC(=O)O)c1 [Example 3]
Output line: > 10 µM

Input line: Please give the measured EC50 for this molecule: Cc1nc(-c2ccc(C(F)(F)F)cc2)sc1COc1cccc2c1ccn2CC(=O)O [Example 4]
Output line: > 10 µM

Input line: Return reported EC50; argument: Cc1nc(-c2ccc(C(F)(F)F)cc2)sc1COc1cccc(CC(=O)O)c1 [Example 1]
Output line: < 1 µM

Input line: Can you look up the measured EC50 of Cc1nc(-c2ccc(C(F)(F)F)cc2)sc1COc1ccc2[nH]cc(CC(=O)O)c2c1 [Example 7] for me?
Output line: > 10 µM

Input line: Query: EC50; subject: Cc1nc(-c2ccc(C(F)(F)F)cc2)sc1Cn1ccc2c(C(=O)O)cccc21 [Example 9]
Output line: > 10 µM

Values compiled from patent US20050203151A1.
